# targetUnderTest: T1, hIL-3 receptor (human, UniProt P26951)
# T1 sequence: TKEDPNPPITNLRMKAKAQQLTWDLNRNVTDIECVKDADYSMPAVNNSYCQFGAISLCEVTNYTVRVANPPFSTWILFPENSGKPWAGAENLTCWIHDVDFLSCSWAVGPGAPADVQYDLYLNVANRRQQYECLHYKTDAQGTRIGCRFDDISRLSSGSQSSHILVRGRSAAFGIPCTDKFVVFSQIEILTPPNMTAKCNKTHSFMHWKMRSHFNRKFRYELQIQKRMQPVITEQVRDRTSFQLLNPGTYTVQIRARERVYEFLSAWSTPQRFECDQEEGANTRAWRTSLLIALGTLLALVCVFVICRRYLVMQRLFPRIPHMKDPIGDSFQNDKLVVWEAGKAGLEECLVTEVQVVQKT
# protocolDescription: cell-based or functional assay
Below, each entry is listed alongside its reported Relative Biological Activity (AML 193 proliferation).

- binder: "pMON13422 polypeptide (ligand) MANCSIAIDEIIHHLKRPPNPLLDPNNLNSEDVDILIERNLRTPNLLAFVRAVKHLENASGIEAILRNLQPCLPSATAAPSRHPIIIKAGDWQEFREKLTFYLVTLEQAQEQQ"
  result: "0.4 EC50 (1-133)hIL-3 / EC50 mutant"

Okay, next one:
Lookup result for pMON13421 polypeptide (ligand) MANCSIMIDEAIHHLKRPPAPSLDPNNLNDEDMSILMDRNLRLSNLESFVRAVKNLENASGIEAILRNLQPCLPSATAAPSRHPIIIKAGDWQEFREKLTFYLVTLEQAQEQQ ; measured Relative Biological Activity (AML 193 proliferation): 0.5 EC50 (1-133)hIL-3 / EC50 mutant
